System: NEK7 (Homo sapiens (Human), UniProt Q8TDX7+Q96SW2)
Sequence (Q8TDX7 whole entry): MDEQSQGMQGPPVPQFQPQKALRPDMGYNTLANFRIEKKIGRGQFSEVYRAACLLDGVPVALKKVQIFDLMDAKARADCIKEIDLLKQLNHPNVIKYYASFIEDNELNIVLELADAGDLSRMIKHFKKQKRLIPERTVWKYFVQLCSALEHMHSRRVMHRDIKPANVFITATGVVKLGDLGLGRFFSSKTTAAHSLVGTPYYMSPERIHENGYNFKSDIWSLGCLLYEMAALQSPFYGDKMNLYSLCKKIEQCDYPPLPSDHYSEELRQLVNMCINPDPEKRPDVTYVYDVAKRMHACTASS
Sequence (Q96SW2 whole entry): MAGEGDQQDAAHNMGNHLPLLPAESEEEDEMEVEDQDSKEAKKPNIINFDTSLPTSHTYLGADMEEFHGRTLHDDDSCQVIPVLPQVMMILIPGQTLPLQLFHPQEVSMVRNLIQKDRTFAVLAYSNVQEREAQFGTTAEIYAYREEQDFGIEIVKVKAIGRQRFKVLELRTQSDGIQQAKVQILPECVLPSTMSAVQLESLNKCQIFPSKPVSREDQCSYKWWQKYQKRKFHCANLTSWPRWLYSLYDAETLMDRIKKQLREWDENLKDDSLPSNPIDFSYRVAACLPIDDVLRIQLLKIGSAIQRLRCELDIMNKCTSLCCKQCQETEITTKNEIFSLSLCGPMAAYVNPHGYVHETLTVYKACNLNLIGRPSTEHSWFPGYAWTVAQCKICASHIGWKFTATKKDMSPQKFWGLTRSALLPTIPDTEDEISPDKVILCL
Sequence (Q16531 2-1140 partner): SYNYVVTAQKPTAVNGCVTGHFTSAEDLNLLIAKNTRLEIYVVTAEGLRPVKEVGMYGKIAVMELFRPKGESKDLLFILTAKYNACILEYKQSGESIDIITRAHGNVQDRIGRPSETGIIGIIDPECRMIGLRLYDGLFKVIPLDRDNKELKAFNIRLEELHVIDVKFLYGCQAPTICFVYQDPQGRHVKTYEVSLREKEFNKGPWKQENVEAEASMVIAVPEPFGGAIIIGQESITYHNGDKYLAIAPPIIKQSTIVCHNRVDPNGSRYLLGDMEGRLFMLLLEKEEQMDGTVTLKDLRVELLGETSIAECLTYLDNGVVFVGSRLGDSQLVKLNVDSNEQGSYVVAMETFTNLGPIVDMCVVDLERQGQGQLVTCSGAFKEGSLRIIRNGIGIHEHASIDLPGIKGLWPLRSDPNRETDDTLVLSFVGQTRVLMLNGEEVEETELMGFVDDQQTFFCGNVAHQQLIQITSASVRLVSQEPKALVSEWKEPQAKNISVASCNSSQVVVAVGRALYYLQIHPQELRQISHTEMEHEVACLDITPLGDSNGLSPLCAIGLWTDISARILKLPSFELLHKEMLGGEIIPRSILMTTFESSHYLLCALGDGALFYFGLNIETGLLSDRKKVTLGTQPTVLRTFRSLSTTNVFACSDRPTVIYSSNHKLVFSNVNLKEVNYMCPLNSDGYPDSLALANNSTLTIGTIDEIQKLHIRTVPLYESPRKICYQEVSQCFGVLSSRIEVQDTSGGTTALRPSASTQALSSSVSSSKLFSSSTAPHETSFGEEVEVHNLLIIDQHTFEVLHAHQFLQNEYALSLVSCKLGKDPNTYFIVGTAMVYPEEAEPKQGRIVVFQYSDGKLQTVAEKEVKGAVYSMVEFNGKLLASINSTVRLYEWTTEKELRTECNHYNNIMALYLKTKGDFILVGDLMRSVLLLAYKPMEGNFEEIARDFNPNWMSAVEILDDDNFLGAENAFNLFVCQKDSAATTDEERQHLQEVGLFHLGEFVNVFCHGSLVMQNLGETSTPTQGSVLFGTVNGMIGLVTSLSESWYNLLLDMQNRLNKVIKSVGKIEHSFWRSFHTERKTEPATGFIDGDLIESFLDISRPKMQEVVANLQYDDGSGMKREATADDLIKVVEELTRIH
Protocol details: NEK7 NanoBiT degradation assay in Cal51 NEK7 NanoBiT cell line
Type: cell-based
Particulars: CAL-51; Cal51 NEK7 NanoBiT cells, 24 hours; read-out: NEK7 NanoBiT Dmax
Test readout: Dmax (%)
Numbers only, in %.

Guide cases for Dmax, answers given:
>>> df
                                   molecule                                    system  assay_value
0  CC(C)(C(=O)NCc1ccc(C2CCC(=O)NC2=O)c(Cl)c1)c1cccc(C#N)c1 (stereo not shown)  NEK7 (Homo sapiens (Human), UniProt Q8TDX7+Q96SW2)           61
1  CC(C)(C(=O)NCc1cc(Cl)c(C2CCC(=O)NC2=O)c(Cl)c1)N1Cc2ccccc2C1 (stereo not shown)  NEK7 (Homo sapiens (Human), UniProt Q8TDX7+Q96SW2)           73
2  CC(C)(C(=O)NCc1cc(Cl)c(C2CCC(=O)NC2=O)c(Cl)c1)c1ccc(C2CC2)nn1 (stereo not shown)  NEK7 (Homo sapiens (Human), UniProt Q8TDX7+Q96SW2)           92
3  CC1(c2cnc(C(C)(C)C(=O)NCc3cc(Cl)c(C4CCC(=O)NC4=O)c(Cl)c3)nc2)CC1 (stereo not shown)  NEK7 (Homo sapiens (Human), UniProt Q8TDX7+Q96SW2)           82
4  CC(C)(C(=O)NCc1cc(Cl)c(C2CCC(=O)NC2=O)c(Cl)c1)c1ncc(C(F)(F)F)cn1 (stereo not shown)  NEK7 (Homo sapiens (Human), UniProt Q8TDX7+Q96SW2)           94
5  Cc1conc1C(C)(C)C(=O)NCc1cc(Cl)c(C2CCC(=O)NC2=O)c(Cl)c1 (stereo not shown)  NEK7 (Homo sapiens (Human), UniProt Q8TDX7+Q96SW2)           93
6  CC(C)(C(=O)NCc1cc(Cl)c(C2CCC(=O)NC2=O)c(Cl)c1)c1ccc(C(F)(F)F)nn1 (stereo not shown)  NEK7 (Homo sapiens (Human), UniProt Q8TDX7+Q96SW2)           85
7  CCOc1ccc(C(C)(C)C(=O)NCc2cc(F)c(C3CCC(=O)NC3=O)c(Cl)c2)nn1 (stereo not shown)  NEK7 (Homo sapiens (Human), UniProt Q8TDX7+Q96SW2)           91
8  CC(C)(C(=O)NCc1cc(Cl)c(C2CCC(=O)NC2=O)c(Cl)c1)c1cc(C2CC2)ncn1 (stereo not shown)  NEK7 (Homo sapiens (Human), UniProt Q8TDX7+Q96SW2)           60
9  Cc1cc(C(C)(C)C(=O)NCc2cc(Cl)c(C3CCC(=O)NC3=O)c(Cl)c2)ncn1 (stereo not shown)  NEK7 (Homo sapiens (Human), UniProt Q8TDX7+Q96SW2)           85

Give one value of Dmax per listed molecule.
1. CC(C)(C(=O)NCc1cc(Cl)c(C2CCC(=O)NC2=O)c(Cl)c1)c1ccc2ncncc2c1 (stereo not shown)
2. CC(F)(F)c1ccc(C(C)(C)C(=O)NCc2cc(F)c(C3CCC(=O)NC3=O)c(Cl)c2)nn1 (stereo not shown)
3. CC(C)(C(=O)NCc1ccc(C2CCC(=O)NC2=O)c(Cl)c1)c1ccc(C#N)cc1 (stereo not shown)
4. CC(C)(C(=O)NCc1cc(F)c(C2CCC(=O)NC2=O)c(Cl)c1)c1nc2ccccc2o1 (stereo not shown)
5. O=C1CCC(c2c(Cl)cc(CNC(=O)C3(c4ccc(F)cc4)CCOC3)cc2Cl)C(=O)N1 (stereo not shown)
6. CC(C)(C(=O)NCc1cc(Cl)c(C2CCC(=O)NC2=O)c(Cl)c1)c1cccnn1 (stereo not shown)

1: 96; 2: 61; 3: 91; 4: 87; 5: 91; 6: 72
